// data source = the FLAb antibody collection (doi:10.7554/elife.23156)

B1: scFv; the commonest letter at each place (parent)
chain 1: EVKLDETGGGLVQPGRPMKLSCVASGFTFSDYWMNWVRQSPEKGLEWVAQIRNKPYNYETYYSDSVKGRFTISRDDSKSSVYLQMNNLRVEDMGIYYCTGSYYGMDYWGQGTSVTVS
chain 2: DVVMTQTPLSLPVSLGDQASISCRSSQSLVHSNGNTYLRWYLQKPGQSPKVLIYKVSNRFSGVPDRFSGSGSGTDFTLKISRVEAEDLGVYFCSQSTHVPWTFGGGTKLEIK

- Variants of: B1
- EXPERIMENTAL_PROTOCOL: yeast surface expression (ratio to wild type); higher = more expressed
- TEST_SETTINGS: format: scFv 4-4-20, heavy + light
Give measured yeast surface expression for each item. Keep answers brief.

>>> result("chain 1 T28G V37P")
0.581
>>> result("chain 1 D106L W108C")
0.234
>>> result("chain 1 T28C Y32P")
0.707

For every item below, please supply its yeast surface expression.
1. chain 1 Y107E G109E
2. chain 1 Y103W D106K
3. chain 1 S101E
4. chain 1 M105V Y107A
5. chain 1 Y102V W108Y
6. chain 1 S101T Y107E
7. chain 1 T28D D31L

Data returned:
1: 0.288; 2: 0.245; 3: 0.838; 4: 0.758; 5: 0.855; 6: 0.565; 7: 0.935

For every item below, please supply its yeast surface expression.
1. chain 1 W36M V37W
2. chain 1 M105I W108G
3. chain 1 G104L D106G
4. chain 1 G100V Y107M

Data returned:
1: 0.496; 2: 0.529; 3: 0.169; 4: 0.726

For every item below, please supply its yeast surface expression.
1. chain 1 M34K N35A
2. chain 1 G100Y M105S
3. chain 1 Y32D W33E
4. chain 1 F29N D31C M34N
5. chain 1 Y102D M105I
6. chain 1 N35Q W36M
7. chain 1 Y107D W108Q

Data returned:
[0.175, 0.377, 0.525, 0.701, 1.08, 0.504, 0.706]

Data request: Looking for the measured yeast surface expression of chain 1 G100R Y103D W108G , can you help?
Data returned: 0.483
